Tested on: PC-3 prostate
Assay: NCI-60 one-dose screen, 48 h (100 = growth as untreated, 0 = no growth, -100 = all killed)
Conditions: 10 µM unless noted
About 83,000 compounds went through this panel and 20% of them were active in at least one assay; those are over-represented in the sample as a whole. Active and inactive are the calls of the source. Rule for the calls: active = growth percent below 10; inactive = the rest.
MEASURED_METRIC: growth

# example entries with known answers
{"COMPOUND": "C[n+]1c(/C=C/c2ccc([N+](=O)[O-])cc2)ccc2ccccc21", "TARGET_OR_SYSTEM": "PC-3 prostate", "MEASURED_METRIC": "growth", "RECORDED_MEASUREMENT": "90% (inactive)"}
{"COMPOUND": "NC1=CC(=O)c2ccccc2C1=O", "TARGET_OR_SYSTEM": "PC-3 prostate", "MEASURED_METRIC": "growth", "RECORDED_MEASUREMENT": "55.6% (inactive)"}
{"COMPOUND": "Cc1cc(C(C)(CC(C)C)c2ccc(O)c(C)c2)ccc1O", "TARGET_OR_SYSTEM": "PC-3 prostate", "MEASURED_METRIC": "growth", "RECORDED_MEASUREMENT": "93.2% (inactive)"}
{"COMPOUND": "C1=C(c2ccccc2)C(c2ccc(OCCN3CCCCC3)cc2)Oc2ccccc21 (stereo not drawn)", "TARGET_OR_SYSTEM": "PC-3 prostate", "MEASURED_METRIC": "growth", "RECORDED_MEASUREMENT": "60.6% (inactive)"}
{"COMPOUND": "O=C1C=CC(=O)N1C1c2ccccc2-c2ccccc21", "TARGET_OR_SYSTEM": "PC-3 prostate", "MEASURED_METRIC": "growth", "RECORDED_MEASUREMENT": "94.1% (inactive)"}

Request: Returns the measured growth for the input compound. Input: CC(C)c1ccc2nc3ccc(C(=O)NCCN4CCN(c5ccccc5)CC4)cn3c(=O)c2c1
Response: 56.3% (inactive)

Request: Returns the measured growth for the input compound. Input: CCOC(=O)/C=C/c1ccc([N+](=O)[O-])o1
Response: 93.4% (inactive)

Request: Returns the measured growth for the input compound. Input: CCCCCCCCCCCCCCCCOP(=O)([O-])OCC[N+](C)(C)C
Response: -22.1% (active)

Request: Returns the measured growth for the input compound. Input: O=C1OCc2cccc3cccc1c23
Response: 89.5% (inactive)

Request: Returns the measured growth for the input compound. Input: CCN(CC)CC(C)(C)C(=O)/C=C/c1ccc(Cl)c(Cl)c1
Response: -33.8% (active)
